assay_details: growth inhibition, single agents and combos, HD-MB03, cell-based, BGB or cisplatin IC20 combos, synergistic combos for chromothripsis tumors (AID 1671455);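 further: 0% = vehicle DMSO and 100% = high DMSO as cytotoxic control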
condition_info: HD-MB03 medulloblastoma cells, measured here: combo with BGB at IC20, at 0.5 µM, stronger effect = higher value
parameter_measured: inhibition (%)
Write the value in % as a bare number.

Bench note: what inhibition did C=C(C)C1CCC2(C(=O)O)CCC3(C)C(CCC4C5(C)CCC(O)C(C)(C)C5CCC43C)C12 (stereo not drawn) show?
-2.46

Fill in the blank: the reported inhibition of "Cn1cnc2[nH]c(=O)[nH]c(=O)c21" is ____.
-8.65

Query (molecule): "C[C@@H]1O[C@@H](O[C@@H]2[C@@H](O)[C@H](OCCc3ccc(O)c(O)c3)O[C@H](CO)[C@H]2OC(=O)C=Cc2ccc(O)c(O)c2)[C@H](O)[C@H](O)[C@H]1O" ; field requested: inhibition
-18

* * *

assay_details: galactose survival enhancers in mitochondrial complex I cybrids – cell-based, galactose medium, ATP luminescence, primary screen (AID 1645843);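 further: positive z means more ATP and so rescue of galactose-driven cybrid death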
condition_info: complex I mutant cybrid cells, 72 h, stronger effect = higher value
parameter_measured: z-score
Output: the number by itself.

Can you share its z-score? I mean this molecule: "OC1(c2ccc(Cl)cc2)CCN(Cc2c[nH]c3ccccc23)CC1"
-0.735

Fill in the blank: the reported z-score of C=C1C2(C(=O)N3CCC(CCN4CCCC4=O)CC3)CCC(C2)C1(C)C (centres undefined) is ____.
-0.41

Recorded z-score for "Cc1nc(N=Nc2ccc(C(=O)O)cc2)c(COP(=O)(O)O)c(C=O)c1O" , please?
0.49

# query: z-score of entry "O=C(O)C1(Oc2cccc(-c3cccc4ncccc34)c2)CCCC1"
-0.5

* * *

assay_details: viability loss with induced miR-34 in A549 – imaging, A549 dox-inducible miR-34, nuclei and caspase counts, primary screen (AID 1347080)
condition_info: A549 miR-34 inducible, Hoechst nuclei count, 48 h; stronger effect = lower value; cell number ratio, induced over uninduced
parameter_measured: fold change
Simply state the number, no unit and no words.

Quick check: fold change of C[C@]12CC[C@H]3c4ccc(OC(=O)c5ccccc5)cc4CC[C@H]3[C@@H]1CCC2O (stereo partly specified) ?
0.921

So what's the measured fold change for this one? CC(CNC(=O)c1cccnc1)NC(=O)c1cccnc1 (stereo unspecified)
0.92

Looking for the measured fold change of "COc1ccc(CN(C)C(=O)Nc2nc(-c3ccccc3)ns2)cc1" , can you help?
0.886

Consider the molecule COc1cc2c(c(OC)c1OC)-c1c(cc3c(c1OC)OCO3)CC(C)C(C)C2 (stereo unspecified) and give its measured fold change.
0.915

Quick one: fold change of COC1C[C@H]2CCC(C)[C@@](O)(O2)C(=O)C(=O)N2CCCC[C@H]2C(=O)OC(C(C)CC2CCC(OC(=O)C(C)(CO)CO)C(OC)C2)CC(=O)C(C)C=C(C)C(O)C(OC)C(=O)C(C)CC(C)C=CC=CC=C1C (stereo partly specified) ?
1.08

What measured fold change goes with "CCCCCCCCCC(=O)OC[C@H](CO)OC(=O)CCCCCCCCC" ?
0.939

Record request: fold change value, item "O=C(c1cccnc1)N1CCOCC1"
0.924

Need fold change, item "O=C(Nc1cc(Br)c(O)c(Br)c1)c1ccccc1"
0.856

What value of fold change has been reported for the following molecule? "CC(C)=CCn1cnc(=N)c2[nH]cnc21"
0.911

Item "Brc1c(Br)c(Br)c2[nH]cnc2c1Br" has what recorded fold change?
1.11

For "CC1(C)C=C(CN2CC(=Cc3ccc(F)cc3)C(=O)C(=Cc3ccc(F)cc3)C2)C(C)(C)N1O" , what is its reported fold change?
0.876

Name the reported fold change value associated with the molecule O=C(CS(=O)Cc1ccco1)NCC=CCOc1cc(CN2CCCCC2)ccn1 (stereo unspecified)
0.878

Given the molecule "Cc1oc(S(=O)(=O)N2CCCCC2)cc1NC(=O)Nc1ccccc1" , what is its reported fold change?
0.9

Item "O=S(=O)(c1ccccc1)c1cnc2c(N3CCNCC3)cccc2c1" has what recorded fold change?
0.946

Quick one: fold change for CC#C[C@]1(O)CCC2C3CCC4=CC(=O)CCC4=C3C(c3ccc(N(C)C)cc3)C[C@@]21C (stereo partly specified) ?
0.84

Quick check: fold change of COc1ccc(CC(C)(N)C(=O)O)cc1OC (stereo unspecified) ?
0.962

fold change for "O=C(CCSCc1ccco1)NNC(=O)N1Cc2ccccc2Oc2ccc(Cl)cc21" ?
0.969

Please give the measured fold change for this molecule: "N=C(N)c1ccccc1"
1.03

Quick one: fold change of "O=C1/C(=C/c2ccsc2)CC/C1=C\c1cccs1" ?
0.99

Name the recorded fold change for "Cn1c(=O)c2c(nc(/C=C/c3cccc(Cl)c3)n2C)n(C)c1=O" .
1.03

Please report the recorded fold change for CNc1nc(Nc2cnn(C3CCN(C4COC4)CC3F)c2Cl)ncc1C(F)(F)F (stereo unspecified) .
0.967

Requested read-out: fold change. Entry: "NCCC(=O)NCCc1cnc[nH]1"
0.903

Item C[C@@H]1C(=O)O[C@H]2CC34[C@H]5C[C@@H](C(C)(C)C)[C@]36[C@@H](OC(=O)[C@@H]6O)O[C@@]4(C(=O)O5)[C@]21O (stereo partly specified) has what recorded fold change?
0.905

Given the entry "CNCCC=C1c2ccccc2C=Cc2ccccc21" , report its measured fold change.
0.862

Sample "CC[C@]1(O)C[C@H]2CN(CCc3c([nH]c4ccccc34)[C@@](C(=O)OC)(c3cc4c(cc3OC)N(C)[C@H]3[C@@](O)(C(N)=O)[C@H](O)[C@]5(CC)C=CCN6CC[C@]43[C@@H]65)C2)C1" — what was its fold change?
1.02

Data request, read-out fold change, for CCNC(=O)CCCC=CCC1C(O)CC(O)C1C=CC(O)CCc1ccccc1 (stereo unspecified)
0.925

// returns reported fold change for input Cc1nn(C)cc1-c1ccnc(NCC(C)Oc2cccnc2)n1 (stereo unspecified)
0.898

Look up fold change: "CC(C)(C)c1cn(C2CCN(C(=O)c3cnc4ccccc4n3)CC2)nn1"
0.867

// fold change lookup, key: "O=C(NN=Cc1ccc(O)c(O)c1)c1cc2ccccc2cc1O"
0.949

Return reported fold change; argument: O=C(Nc1ccccc1)Nc1ccc(-c2ccc(C(=O)C3CCCC3C(=O)O)cc2)cc1 (stereo unspecified)
0.846

// returns reported fold change for input COC(=O)CN1CCN(c2ncnc3sccc23)C(C)C1=O (stereo unspecified)
0.854
